measured.metric: logP
Lab note: jot the number down without any unit.

Please review the following examples before continuing.
[
  {
    "compound": "Clc1ccc2ccccc2c1",
    "logP": 3.9
  },
  {
    "compound": "C=Cc1cc(C)ccc1C",
    "logP": 4.16
  },
  {
    "compound": "[N-]=[N+]=CC(=O)OC[C@H](N)C(=O)O",
    "logP": -2
  }
]

Fill blank: measured logP of the compound CCCCCCCCOC(=O)c1ccc(N)cc1 is ____.
5.02

What do we get for Nc1nc(NC(=O)C(F)(F)C(F)(F)C(F)(F)F)n[nH]1 ?
1.54

// query: c1ccc2c(c1)Cc1cccnc1-2
2.96

Now give it for Clc1cccc2ccccc12 too.
4

Next: CCC(C)n1ncn(-c2ccc(N3CCN(c4ccc(OC[C@H]5CO[C@](Cn6cncn6)(c6ccc(Cl)cc6Cl)O5)cc4)CC3)cc2)c1=O (some centres undefined)
5.66

Can you handle Cc1ccc([N+](=O)[O-])cc1C next?
2.91

Same lookup for Clc1ccc(Cl)c(-c2ccccc2Cl)c1 , please.
5.48

Please do the same for C[C@H](CCC(=O)O)[C@H]1CC[C@H]2[C@@H]3[C@H](O)C[C@@H]4C[C@H](O)CC[C@]4(C)[C@H]3C[C@H](O)[C@]12C as well.
2.02

Also need CNC(N)=S , thanks.
-0.69

How about this compound: Nc1ncc2ncn(COCCO)c2n1
-1.08

Follow-up entry: O=C(OCc1ccccc1)c1ccc(O)cc1
3.56

====

measured.metric: logP
Lab note: write the figure by itself, no unit.

Answered cases to consult:
[
  {
    "compound": "CCCCCCCCCCCCCCO",
    "logP": 6.03
  },
  {
    "compound": "CCc1ccc(C=[N+]([O-])C(C)(C)C)cc1",
    "logP": 2.19
  },
  {
    "compound": "COC1=C(OC)C(=O)C(OC)=C(OC)C1=O",
    "logP": 0.41
  },
  {
    "compound": "C[N+](C)(C)CC1CCCC1.[I-]",
    "logP": -2
  },
  {
    "compound": "C=CC(=O)NCCCN(CCO)CCO",
    "logP": -0.6
  },
  {
    "compound": "COc1nc(C)nc(NC(=O)NS(=O)(=O)c2ccccc2Cl)n1",
    "logP": 2
  }
]

Consider the compound C[C@H](CCC(=O)O)[C@H]1CC[C@H]2[C@@H]3CC[C@@H]4C[C@H](O)CC[C@]4(C)[C@H]3C[C@H](O)[C@]12C and give its measured logP.
3.5

Another: CCCCOc1ccc([N+](=O)[O-])cc1NC(C)=O
2.26

Do the same for COc1cc(Cl)c(Cl)c(Cl)c1Cl please
4.51

Another compound: Cc1cnc2c(C(=O)O)c(Cl)ccc2c1
0.78

Follow-up entry: CC1(C)C=C(C(=O)NCCCN2C(=O)c3ccccc3C2=O)C(C)(C)N1
1.58

Try this compound too: CCCCCCCCCCCCN1CC(C(=O)OC)CC1=O (configuration not stated)
4

====

run.conditions: 23.0 °C
# log10 OH rate constant (cm³/molecule/s) annotations
Respond using a number only.

Please review the following examples before continuing.
[
  {
    "molecule": "CC(=O)C(C)CO (configuration not stated)",
    "measured.metric": "log10 OH rate constant (cm³/molecule/s)",
    "endpoint.value": -10.8
  },
  {
    "molecule": "CC1=CCC(=O)O1",
    "measured.metric": "log10 OH rate constant (cm³/molecule/s)",
    "endpoint.value": -10.2
  },
  {
    "molecule": "C=C1CCC=C(C)CC[C@@H]2[C@@H]1CC2(C)C",
    "measured.metric": "log10 OH rate constant (cm³/molecule/s)",
    "endpoint.value": -9.7
  },
  {
    "molecule": "C=C(F)F",
    "measured.metric": "log10 OH rate constant (cm³/molecule/s)",
    "endpoint.value": -11.7
  },
  {
    "molecule": "CC(=O)C(C)(C)O",
    "measured.metric": "log10 OH rate constant (cm³/molecule/s)",
    "endpoint.value": -12
  }
]

Let us move to another entry and its log10 OH rate constant (cm³/molecule/s).
Any idea what log10 OH rate constant (cm³/molecule/s) was measured for c1ccc2c(c1)OCCO2 ?
-10.6
